Test system: total INa (VGSCs naturally expressed on dorsal root ganglion sensory neurons)
PROTOCOL DETAILS: Dose–response inhibition of total INa peak, whole-cell patch clamp
Assay type: cell-based, rat
TEST SETTINGS: total INa; holding −110 mV, test +20 mV; drug alone; read-out: IC50

{"COMPOUND": "CCN(CC)CC(=O)Nc1c(C)cccc1C [LID, lidocaine]", "IC50": "1420 µM"}

====

System: TTX-R INa (VGSCs of DRG neurons)
Assay type: cell-based, rat
TEST SETTINGS: holding −110 mV, test +20 mV
PARAMETER MEASURED: IC50

{"COMPOUND": "C=CCc1ccc(O)c(OC)c1 [EUG, 4-allyl-2-methoxyphenol]", "RESULT": "2210 µM"}

src = paper PMC11234063
